Attribution: the nanobody polyreactivity screen of Harvey et al. (2022)

# Experiment description: yeast display, Sf9 membrane polyspecificity reagent, FACS + sequencing; frameworks hold sequencing errors
Reported endpoint: polyreactivity (PSR sort gate)

QVQLVESGGGLVQAGGSLRLSCAASGITFRHYAMGWYRQAPGKERELVAAITSRGGSTYYADSVKGRFTISRDNAKNTVYLQMNSLKPEDTAVYYCAARRRLRAPDDYWGQGTQVTVSS high polyreactivity
QVQLQESGGGLVQAGGTLRLSCAANGNISYSNPMGWYRQPPGKEREFVASINPGSTTNYMDSVKGRFTISRDNAKNTVYLQMNSLKPEDTAVYYCNSVFFKSRQGQMYYWGQGSQVTVSS high polyreactivity

###

# Experiment description: yeast display, Sf9 membrane polyspecificity reagent, FACS + sequencing; frameworks hold sequencing errors
Reported endpoint: polyreactivity (PSR sort gate)

QVQLVESGGGLVQAGGSLRLSCAASGSIFFSNAMGGYRQAPGKERELVAAITSTGGSTYYADSVKGRFTISRDNAKNTGYLQMNSLKPEDTAVYYCAAASRRGYYYWGQGTQVTVSS high polyreactivity
QVQLVESGGGFVQAGGSLSLSCAASGRIFGINAMLWYRQAPGKVRELVAAISSSGANTYYADSVKGRFTISRDNAKNTVYLQMNRLKPEDTAVYYCATKASSYQSPYYYWGQGTQVTVSS high polyreactivity
